- Tested on: Bladder T24
- test.protocol: CellTiter Glo cell viability assay
- Format: cell-based, human
- experimental.setup: Homo sapiens; T24/HTB-4; 11 dilutions 3-0.00001 μM; read-out: IC50
measurement.label: IC50 (nM)

Reference set (3 entries):
                                   compound  measurement_label  value_reported
0  COc1cc(/C=C/c2cc(O)cc(OC)c2CC=C(C)C)ccc1NC=O [Compound 27]               IC50            32.5
1  CCOc1cc(O)cc(/C=C/c2ccc(O)c(OC)c2)c1CC=C(C)C [Compound 8]               IC50            61.1
2  COc1cc(/C=C/c2cc(O)cc(OC)c2CC=C(C)C)ccc1O [Compound 1]               IC50             182

[1] CCOc1cc(O)cc(/C=C/c2ccc(O)c(O)c2)c1CC=C(C)C [Compound 20]
[2] CCOc1cc(O)cc(/C=C/c2ccc(NC=O)c(OC)c2)c1CC=C(C)C [Compound 28]
Which gives the smaller IC50 number: 1 or 2 ? Select an item and report its label.
2
